Values compiled from ChEMBL document CHEMBL5214933.

protocolDetails: AUC (0 to infinity) in Sprague-Dawley rat at 50 mg/kg, po measured for 1440 mins by LC-MS/MS analysis
Assay type: ADME, organism-based
Design: time 1440 min, dose 50 mg/kg, route po
conditionsUsed: in vivo

| compoundStructureString | AUC(0-inf) [µg·h/mL] |
| --- | --- |
| COc1cc2cc(C(=O)CCC(=O)O)sc2cc1OC | 56.8 |
| CC[C@H](CC(=O)c1cc2cc(OC)c(OC)cc2[se]1)C(=O)O | 316 |

###

experimentalTarget: Stimulator of interferon genes protein (Homo sapiens, UniProt Q86WV6)
protocolDetails: Agonist activity at STING in cGAS knockout human THP-1 cells harboring IRF-inducible luciferase reporter construct assessed as increase in relative fluorescence unit incubated for 12 hrs by Quanti-luc reagent based assay
Assay type: cell-based
Sequence (Q86WV6 whole entry): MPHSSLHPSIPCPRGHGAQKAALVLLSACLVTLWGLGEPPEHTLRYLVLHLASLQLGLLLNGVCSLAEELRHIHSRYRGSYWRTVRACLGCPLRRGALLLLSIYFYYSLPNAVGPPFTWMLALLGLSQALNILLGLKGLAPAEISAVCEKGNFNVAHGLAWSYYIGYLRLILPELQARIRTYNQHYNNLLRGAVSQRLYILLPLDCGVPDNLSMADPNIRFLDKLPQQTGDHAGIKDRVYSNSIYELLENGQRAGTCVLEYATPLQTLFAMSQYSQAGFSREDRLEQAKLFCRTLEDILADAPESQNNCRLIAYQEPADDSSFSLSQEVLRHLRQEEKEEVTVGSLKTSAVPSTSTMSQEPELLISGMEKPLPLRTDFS

| compoundStructureString | EC50 / µM |
| --- | --- |
| CC[C@H](CC(=O)c1cc2cc(OC)c(OC)cc2[se]1)C(=O)O | 5.19 |

###

experimentalTarget: Stimulator of interferon genes protein (Homo sapiens, UniProt Q86WV6)
protocolDetails: Binding affinity to recombinant human STING H232 variant expressed in Escherichia coli BL21 (DE3) assessed as dissociation constant by multicycle SPR analysis
Sequence (Q86WV6 whole entry, looked up, change not shown): as the sequence (Q86WV6 whole entry) above
pKd: −log10 of the molar value.

| compoundStructureString | pKd |
| --- | --- |
| CC[C@H](CC(=O)c1cc2cc(OC)c(OC)cc2[se]1)C(=O)O | 4.24 |

###

experimentalTarget: Stimulator of interferon genes protein (Homo sapiens, UniProt Q86WV6)
protocolDetails: Agonist activity at STING in human THP-1 cells harboring IRF-inducible luciferase reporter construct assessed as fold change in ISG signalling at 20 uM incubated for 12 hrs by Quanti-luc reagent based assay relative to control
Format: cell-based
conditionsUsed: filed as agonist
List of fold change (FC) values.

| molecule | fold change (FC) |
| --- | --- |
| COc1cc2cc(C(=O)C3CCC3C(=O)O)[se]c2cc1OC (racemic) | 24 |
| CCC(CC(=O)c1cc2cc(OC)c(OC)cc2s1)C(=O)O (racemic) | 18 |
| COc1cc2cc(C(=O)CCC(=O)O)sc2cc1OC | 32 |
| CCC(=O)C(C)CC(=O)c1cc2cc(OC)c(OC)cc2[se]1 (stereo not given) | 15 |
| CC[C@H](CC(=O)c1cc2cc(OC)c(OC)cc2[se]1)C(=O)O | 37 |
| COc1cc2cc(C(=O)CC(C)C(=O)O)[se]c2cc1OC (racemic) | 15 |
| CCC(CC(=O)c1cc2cc(OC)c(OC)cc2[se]1)C(=O)O (racemic) | 27 |
| CCCC(CC(=O)c1cc2cc(OC)c(OC)cc2[se]1)C(=O)O (racemic) | 14 |
| COc1cc2cc(C(=O)C3CC3C(=O)O)[se]c2cc1OC (racemic) | 7 |
| COc1cc2cc(C(=O)CC(C(=O)O)C(C)C)[se]c2cc1OC (racemic) | 10 |

###

protocolDetails: Solubility of compound in PBS buffer at pH 7.4 at 3 mg incubated for 24 hrs under shaking condition by RP-HPLC analysis
Assay type: physicochemical
propertyName: solubility thermodynamic at 24 h (µg/mL)

| compoundStructureString | numericReadout |
| --- | --- |
| CC[C@H](CC(=O)c1cc2cc(OC)c(OC)cc2[se]1)C(=O)O | 1200 |
| COc1cc2cc(C(=O)CCC(=O)O)sc2cc1OC | 300 |

###

logP values, listed per item
protocolDetails: Lipophilicity, logP of compound by RP-HPLC analysis
Assay type: physicochemical

| compoundStructureString | logP |
| --- | --- |
| CC[C@H](CC(=O)c1cc2cc(OC)c(OC)cc2[se]1)C(=O)O | 2.4 |
| COc1cc2cc(C(=O)CCC(=O)O)sc2cc1OC | 1.5 |

###

protocolDetails: Oral bioavailability in Sprague-Dawley rat at 50 mg/kg measured for 1440 mins by LC-MS/MS analysis
Format: ADME, organism-based
conditionsUsed: in vivo
Quick list: bioavailability per entry.

| compoundStructureString | readoutUnit | bioavailability |
| --- | --- | --- |
| CC[C@H](CC(=O)c1cc2cc(OC)c(OC)cc2[se]1)C(=O)O | % | 107 |
| COc1cc2cc(C(=O)CCC(=O)O)sc2cc1OC | % | 58 |

###

experimentalTarget: UniProtKB Q86WV6
protocolDetails: Agonist activity at STING in human THP-1 cells harboring IRF-inducible luciferase reporter construct assessed as increase in relative fluorescence unit incubated for 12 hrs by Quanti-luc reagent based assay
Format: cell-based
pEC50: −log10 of the molar value.
propertyName: pEC50

| compoundStructureString | propertyName | numericReadout |
| --- | --- | --- |
| CC[C@H](CC(=O)c1cc2cc(OC)c(OC)cc2[se]1)C(=O)O | pEC50 | 5.03 |

###

experimentalTarget: hERG (Homo sapiens)
Sequence (Q12809 whole entry): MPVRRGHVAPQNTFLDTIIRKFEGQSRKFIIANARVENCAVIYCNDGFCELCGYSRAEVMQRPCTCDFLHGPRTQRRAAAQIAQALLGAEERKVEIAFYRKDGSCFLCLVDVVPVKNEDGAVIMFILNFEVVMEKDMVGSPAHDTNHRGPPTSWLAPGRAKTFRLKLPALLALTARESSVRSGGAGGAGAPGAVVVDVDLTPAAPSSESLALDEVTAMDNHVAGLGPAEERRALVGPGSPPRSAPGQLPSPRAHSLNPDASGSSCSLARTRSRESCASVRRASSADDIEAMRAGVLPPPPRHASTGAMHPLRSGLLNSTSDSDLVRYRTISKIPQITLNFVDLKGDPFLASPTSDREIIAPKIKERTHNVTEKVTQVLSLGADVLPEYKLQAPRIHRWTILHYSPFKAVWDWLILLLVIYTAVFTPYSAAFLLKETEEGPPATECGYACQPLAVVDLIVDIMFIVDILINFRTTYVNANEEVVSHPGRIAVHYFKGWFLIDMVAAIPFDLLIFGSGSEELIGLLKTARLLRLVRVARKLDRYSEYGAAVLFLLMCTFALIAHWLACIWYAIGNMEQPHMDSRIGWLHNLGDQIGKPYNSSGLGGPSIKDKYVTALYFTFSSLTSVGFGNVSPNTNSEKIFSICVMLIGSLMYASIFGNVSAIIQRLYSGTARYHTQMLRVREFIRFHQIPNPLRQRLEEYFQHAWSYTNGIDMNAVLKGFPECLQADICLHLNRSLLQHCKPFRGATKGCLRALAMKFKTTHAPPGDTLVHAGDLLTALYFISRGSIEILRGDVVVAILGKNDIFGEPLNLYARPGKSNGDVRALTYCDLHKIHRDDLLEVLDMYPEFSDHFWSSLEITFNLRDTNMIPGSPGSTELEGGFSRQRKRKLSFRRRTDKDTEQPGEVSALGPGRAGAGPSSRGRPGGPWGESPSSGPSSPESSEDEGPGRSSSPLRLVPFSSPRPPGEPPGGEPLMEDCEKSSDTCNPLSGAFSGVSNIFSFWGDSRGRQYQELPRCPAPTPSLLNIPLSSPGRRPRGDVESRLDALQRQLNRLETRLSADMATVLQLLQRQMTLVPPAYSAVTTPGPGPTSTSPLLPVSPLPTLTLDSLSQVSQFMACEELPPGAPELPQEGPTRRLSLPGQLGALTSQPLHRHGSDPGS
protocolDetails: Inhibition of hERG expressed in HEK293 cells at 10 uM incubated for 5 mins by QPatch automated patch-clamp technique relative to control
Type: toxicity, cell-based
conditionsUsed: HEK293 cells that express hERG
Quick reference for inhibition at 5 min, 10 µM among some compounds
propertyName: inhibition at 5 min, 10 µM (%)

| compoundStructureString | numericReadout |
| --- | --- |
| COc1cc2cc(C(=O)CCC(=O)O)sc2cc1OC | 0.86 |
| CC[C@H](CC(=O)c1cc2cc(OC)c(OC)cc2[se]1)C(=O)O | -0.7 |

###

protocolDetails: Half life in Sprague-Dawley rat at 5 mg/kg, iv measured for 1440 mins by LC-MS/MS analysis
Type: ADME, organism-based
conditionsUsed: in vivo
half-life values by entry

| compoundStructureString | readoutUnit | half-life |
| --- | --- | --- |
| CC[C@H](CC(=O)c1cc2cc(OC)c(OC)cc2[se]1)C(=O)O | h | 1.04 |
| COc1cc2cc(C(=O)CCC(=O)O)sc2cc1OC | h | 1.71 |

###

Reported ΔTm values for a set of compounds
Test system: Stimulator of interferon genes protein (Homo sapiens), Q86WV6 [UNDEFINED MUTATION]
protocolDetails: Binding affinity to recombinant human STING H232 variant expressed in Escherichia coli BL21 (DE3) assessed as thermal stabilization by measuring change in melting temperature at 2 mM incubated for 30 mins by SYPRO orange dye based differential scanning fluorimetry assay

| compound | ΔTm, °C |
| --- | --- |
| COc1cc2cc(C(=O)CC(C)C(N)=O)[se]c2cc1OC (racemic) | -0.8 |
| COc1cc2cc(C(=O)CCC(=O)O)[se]c2cc1OC | -1.1 |
| COc1cc2cc(C(=O)CC(C(=O)O)C(C)C)[se]c2cc1OC (racemic) | -1.9 |
| CC(CC(=O)c1cc2cc3c(cc2[se]1)OCO3)C(=O)O (racemic) | -0.5 |
| COc1cc2cc(C(=O)C3CC3C(=O)O)[se]c2cc1OC (racemic) | 6.2 |
| CC[C@H](CC(=O)c1cc2cc(OC)c(OC)cc2[se]1)C(=O)O | 7.4 |
| COc1cc2cc(C(=O)CC(C)(C)C(=O)O)[se]c2cc1OC | -1.5 |
| COc1ccc2[se]c(C(=O)CC(C)C(=O)O)cc2c1 (racemic) | -0.3 |

###

Recorded measurements of Cmax, one per entry
protocolDetails: Cmax in Sprague-Dawley rat at 50 mg/kg, po measured for 1440 mins by LC-MS/MS analysis
Type: ADME, organism-based
Parameters: time 1440 min, dose 50 mg/kg, route po
conditionsUsed: in vivo

| compoundStructureString | Cmax, ng/mL |
| --- | --- |
| CC[C@H](CC(=O)c1cc2cc(OC)c(OC)cc2[se]1)C(=O)O | 58200 |
| COc1cc2cc(C(=O)CCC(=O)O)sc2cc1OC | 23300 |

###

The following compounds are shown together with reported solubility thermodynamic at 24 h values.
protocolDetails: Aqueous solubility of compound at 3 mg incubated for 24 hrs under shaking condition by RP-HPLC analysis
Format: physicochemical
conditionsUsed: water

| compoundStructureString | solubility thermodynamic at 24 h |
| --- | --- |
| COc1cc2cc(C(=O)CCC(=O)O)sc2cc1OC | 6 µg/mL |
| CC[C@H](CC(=O)c1cc2cc(OC)c(OC)cc2[se]1)C(=O)O | 30 µg/mL |

###

Let's look at some molecules and their measured half-life.
protocolDetails: Half life in Sprague-Dawley rat at 50 mg/kg, po measured for 1440 mins by LC-MS/MS analysis
Type: ADME, organism-based
conditionsUsed: in vivo
propertyName: half-life (h)

| compoundStructureString | readoutUnit | numericReadout |
| --- | --- | --- |
| COc1cc2cc(C(=O)CCC(=O)O)sc2cc1OC | h | 1.65 |
| CC[C@H](CC(=O)c1cc2cc(OC)c(OC)cc2[se]1)C(=O)O | h | 1.6 |
